// data source = paper PMC9175631

Let's look at some binders and their measured kon.
- assay-target: T1, ZIKV E protein (Suriname Z1106033) (Zika virus, Suriname Z1106033, UniProt A0A0U4DG08, strain)
- T1 construct: also called soluble ZIKV E protein
- protocol-notes: BLI; Octet HTX; MAb 0.1 to 0.3 μg/mL amine-coupled to AR2G biosensor; ZIKV-VLP 0.1 to 1.0 μg/mL or ZIKV E protein 0.2 to 2 μg/mL in 1x kinetic buffer; association 900 s, dissociation 1,200 s; Langmuir 1:1 model; average of two runs
- measurement-context: both partners purified
Field: numeric (M⁻¹ s⁻¹). Do not append units.

anti-ZIKV MAb 270-12 (antibody, V domains shown, source: 293-6E cells, cotransfected, purified (MabSelect SuRe protein A)) VH: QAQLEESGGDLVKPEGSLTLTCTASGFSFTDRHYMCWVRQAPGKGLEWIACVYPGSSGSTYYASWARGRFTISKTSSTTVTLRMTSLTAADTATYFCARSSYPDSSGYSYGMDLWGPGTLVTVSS VL: DIVMTQTPASVEAAVGGTVTIKCQASQDINSNLAWYQQKPGQRPKFLMYLTSKLASGVPSRFRGSGSGTQFTLTISDLECADAATYYCQTYYDISNYGYAFGGGTEVVVK; 94500
anti-ZIKV MAb 242-3 (antibody, V domains shown, recombinant rabbit IgG; 99% amino acid identity with 270-12) VH: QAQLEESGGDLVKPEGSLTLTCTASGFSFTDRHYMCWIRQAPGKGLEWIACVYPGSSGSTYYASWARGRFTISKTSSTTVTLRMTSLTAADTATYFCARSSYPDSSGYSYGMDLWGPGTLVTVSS VL: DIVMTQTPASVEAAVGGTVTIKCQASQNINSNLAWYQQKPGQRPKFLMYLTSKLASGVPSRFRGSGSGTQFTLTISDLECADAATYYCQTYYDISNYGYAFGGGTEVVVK; 67100

# ---- query binder ----
Assign kon to the following record: anti-ZIKV MAb 289-3 (antibody, V domains shown) VH: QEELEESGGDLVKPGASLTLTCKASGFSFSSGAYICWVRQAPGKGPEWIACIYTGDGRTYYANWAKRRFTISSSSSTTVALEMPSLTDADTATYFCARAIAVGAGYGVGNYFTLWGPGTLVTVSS VL: DIVMTQTPSSVSAAVGGTVTINCHASENIYGYLSWYQQKPGQPPKLLIYKASTLASGVPSRFKGSGAGTQFTLTITALECADAATYYCQSYYTSSSNADGSENAFGGGTEVVVE
129000
